PROTOCOL_NOTES: amyloid nucleation score (Sup35N fusion, yeast selection) (log enrichment); library NNK3; higher = more nucleation; inactive = no reads after selection;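 note: zero at mode of non-aggregating sequences after 7 days selection at 30°C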
MEASUREMENT_LABEL: amyloid nucleation score

> print(dat)
               substance         measurement.label  result.value
 1               SFLIGVV  amyloid nucleation score      inactive
 2  RPFYLWNLNIICCPFIQTVK  amyloid nucleation score          2.39
 3            RYLIVVFASC  amyloid nucleation score      inactive
 4  FVKKRLVKGKNFFIELFLMC  amyloid nucleation score      inactive
 5  DNDLQSTKSPLWGVHQANVR  amyloid nucleation score      inactive
 6     VIAVSYNFTWFKTSIFN  amyloid nucleation score          1.31
 7       RGAIIFGKTMIYDSC  amyloid nucleation score      inactive
 8       PKYALMRFRFYSGLR  amyloid nucleation score      inactive
 9            HHKITCLNRW  amyloid nucleation score      inactive
10  TEMMTFGFSGVMFVRVMFWL  amyloid nucleation score      inactive
11  MNKFLSVAIQGIYVERNAHV  amyloid nucleation score          1.34
12        ANAISWGYLIKDYS  amyloid nucleation score      inactive
13                TPLADN  amyloid nucleation score        -0.224
14  RRCPYIRESIYKFSLAKCSF  amyloid nucleation score         0.014
15            MLWRTDHMYY  amyloid nucleation score      inactive
16  YCKEGLQQDPIFSKFYEHLG  amyloid nucleation score      inactive
17               TRVHWHR  amyloid nucleation score          1.63
18  VWMIPISCKSQFLFEWYGHY  amyloid nucleation score          1.12
19  PPCMYTMYCEYNVLQSSSKY  amyloid nucleation score          1.64
20                KADECS  amyloid nucleation score      inactive
21  CSLTRFRWGYRTFEDNAPFH  amyloid nucleation score          1.57
22  GSGYVTGGSSLLRARWSRGG  amyloid nucleation score          1.26
23    GIRVHGNFYMNSGSSTGG  amyloid nucleation score          1.49
24  QYLEAWRCTHFTVGALLLMG  amyloid nucleation score      inactive
25  TWRYWFKLESYNVYWRLLPA  amyloid nucleation score        -0.582
26  FWVRYGPNSQGVGPWTMHRW  amyloid nucleation score         0.189
27  ANESMWYSLMLTVFVLAGCM  amyloid nucleation score      inactive
28  IALKSGMVCRYRYHIGGRIS  amyloid nucleation score      inactive
29  YIFGNFRHTSGGYCVLSVLK  amyloid nucleation score      inactive
30  VRSVRGADELDLICHRLSRN  amyloid nucleation score      inactive
31          EICWKLIGRMRC  amyloid nucleation score      inactive
32  KVTMPLQSYTLYSMYICLLS  amyloid nucleation score      inactive
33  FSFNQWDLLKMSIGCFKRCK  amyloid nucleation score      inactive
34  IKMSLAELTIFRCLWDCPNS  amyloid nucleation score          2.42
35         WCQDATMYNPSYY  amyloid nucleation score      inactive
36  SRMDNSDTIYNILLWTSSYS  amyloid nucleation score      inactive
